All figures here come from patent US20200113910A1.

# targetOrSystem: TrkB (Homo sapiens, UniProt Q16620)
# Construct: expressed in transfected cells; host or cells: U2OS
# Sequence (Q16620 32-822): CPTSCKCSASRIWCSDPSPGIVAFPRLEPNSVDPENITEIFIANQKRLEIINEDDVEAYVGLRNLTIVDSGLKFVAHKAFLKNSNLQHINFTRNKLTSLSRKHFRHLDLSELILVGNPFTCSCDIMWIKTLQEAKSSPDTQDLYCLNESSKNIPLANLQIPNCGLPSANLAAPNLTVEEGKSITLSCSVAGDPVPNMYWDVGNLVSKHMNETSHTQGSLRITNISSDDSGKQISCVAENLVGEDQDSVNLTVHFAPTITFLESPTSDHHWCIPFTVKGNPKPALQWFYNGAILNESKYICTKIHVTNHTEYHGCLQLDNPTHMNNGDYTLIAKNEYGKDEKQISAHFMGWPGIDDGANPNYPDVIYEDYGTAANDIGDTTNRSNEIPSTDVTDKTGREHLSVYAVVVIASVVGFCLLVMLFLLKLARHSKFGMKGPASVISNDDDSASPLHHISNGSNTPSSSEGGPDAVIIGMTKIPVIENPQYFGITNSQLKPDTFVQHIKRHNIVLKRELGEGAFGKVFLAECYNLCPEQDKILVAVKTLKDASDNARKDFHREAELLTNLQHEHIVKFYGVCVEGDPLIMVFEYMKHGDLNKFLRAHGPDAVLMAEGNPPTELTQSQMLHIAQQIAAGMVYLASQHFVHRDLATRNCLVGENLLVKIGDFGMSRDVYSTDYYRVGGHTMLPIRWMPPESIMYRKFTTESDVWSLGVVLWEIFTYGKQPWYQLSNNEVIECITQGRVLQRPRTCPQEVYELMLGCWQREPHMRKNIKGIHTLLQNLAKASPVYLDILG
# protocol: Enzyme Fragment Complementation cell-based assay, TrkB
# conditionDetails: U2OS-cells over-expressing TrkB; ligand BDNF 10 ng/mL
recordedEndpoint: TrkB efficacy, % stimulation over 10 ng/mL of ligand (%)
Give just the numeric value; % need not be written.

So what's the measured TrkB efficacy, % stimulation over 10 ng/mL of ligand for this one? Cc1cc(-n2c(=O)[nH]c(=O)n(-c3ccccc3)c2=O)ccc1Oc1ccc(SC(F)(F)F)cc1 210

Then this molecule: Cc1cc(-n2c(=O)[nH]c(=O)n(C)c2=O)ccc1Oc1ccc(S(=O)(=O)C(F)(F)F)cc1 232

Then this molecule: Cc1cc(-n2c(=O)[nH]c(=O)n(-c3ccccc3)c2=O)ccc1Oc1ccc([S+]([O-])C(F)(F)F)cc1 (stereo not drawn) 217

Then this molecule: Cc1cc(-n2c(=O)[nH]c(=O)n(-c3ccccc3)c2=O)ccc1Oc1ccc(S(=O)(=O)C(F)(F)F)cc1 300

Then this molecule: Cc1cc(-n2c(=O)[nH]c(=O)n(C)c2=O)ccc1Oc1ccc(SC(F)(F)F)cc1 124

Then this molecule: Cc1cc(-n2c(=O)[nH]c(=O)n(C)c2=O)ccc1Oc1ccc([S+]([O-])C(F)(F)F)cc1 (stereo not drawn) 196
